The reported measurements were obtained from the supplement of paper PMC9170038.

- Test system: MS2 coat protein
- assay-text: apparent KD of MS2 coat protein; designed switch direction (-1 OFF switch, 1 ON switch): -1; higher = weaker reporter binding
- condition-parameters: input ligand: microRNA oligo, concentration not stated
Each entry below lists one item and its recorded apparent KD of MS2 coat protein value.
Reply with the number and its unit after it.

Here is how some sequences turned out for apparent KD of MS2 coat protein.
construct-sequence: UUAAAUCAUGUAGGAUAUGCGUGGCGAAGCUAUGCAGAAGGACAUGAGGAUCACCCAUGUUCUAGCGUCUGCGAACAGAUGCAA [Mat - Exclusion NG 1 - Mod of JL - D1] (Eterna round: R96, puzzle: Exclusion NG 1)
assayed-system: MS2 coat protein
apparent KD of MS2 coat protein: 12.2 nM
//
construct-sequence: ACAUGAGGAUCACCCAUGUGACAAGAAUGGCUGAUACAGAGAUAGGAUAUAGGUGCAUAUCUAACCUAGAAGGGUCAUGACUGG [Deportation 75 - Jieux - Exclusion NG 3] (Eterna round: R96, puzzle: Exclusion NG 3)
assayed-system: MS2 coat protein
apparent KD of MS2 coat protein: 34.3 nM
//
construct-sequence: AGCUGUGGCCGAGGAUAUUACGAACCAUGGAAAACCAUGGAAACUCUACAUGAGGAUCACCCAUGUAAGAAGGCGGUCUCAGCA [Eli eng2 - 024] (Eterna round: R96, puzzle: Exclusion NG 2)
assayed-system: MS2 coat protein
apparent KD of MS2 coat protein: 11.7 nM

Now look at this entry.
Q. Please report the recorded apparent KD of MS2 coat protein for GUCGUGCAGCUUUGCUGUACGAGUACAUGAGGAUCACCCAUGUAGGAUAUGGUACGCUUUGCGUGCUAGAAGGAUAUGUGUAGA [salish99_ExNG3_r04_502] (Eterna round: R96, puzzle: Exclusion NG 3) .
A. 30.2 nM
